method-notes: Ratio of drug level in brain to blood in rat
Format: ADME, tissue-based

- structure-smiles: "CCOC(=O)N1[C@@H]2CC[C@H]1C[C@H](CN1CC[C@@H](N3Cc4ccccc4NC3=O)C1)C2"
  Kp: 2.42

====

measured-target: UniProt:P33261
Sequence (P33261 whole entry): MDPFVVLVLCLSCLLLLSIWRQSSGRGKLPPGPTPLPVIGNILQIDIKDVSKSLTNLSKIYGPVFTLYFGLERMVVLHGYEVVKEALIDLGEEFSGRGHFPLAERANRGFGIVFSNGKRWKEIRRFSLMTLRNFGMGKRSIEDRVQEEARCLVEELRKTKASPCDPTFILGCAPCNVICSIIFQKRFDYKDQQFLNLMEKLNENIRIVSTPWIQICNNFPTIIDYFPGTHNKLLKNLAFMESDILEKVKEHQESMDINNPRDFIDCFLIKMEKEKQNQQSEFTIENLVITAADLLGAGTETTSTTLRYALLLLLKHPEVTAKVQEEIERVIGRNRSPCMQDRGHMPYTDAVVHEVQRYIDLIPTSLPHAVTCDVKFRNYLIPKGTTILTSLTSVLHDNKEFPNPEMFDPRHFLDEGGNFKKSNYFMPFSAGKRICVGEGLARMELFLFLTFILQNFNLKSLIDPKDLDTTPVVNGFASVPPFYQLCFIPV
pIC50: −log10 of the molar value.
quantity-measured: pIC50

- structure-smiles: "CCOC(=O)N1[C@@H]2CC[C@H]1C[C@H](CN1CC[C@@H](N3Cc4ccccc4NC3=O)C1)C2"
  measured-target: "UniProt:P33261"
  quantity-measured: "pIC50"
  result: "< 5.70"

====

measured-target: Muscarinic acetylcholine receptor M1 (Homo sapiens) (UniProt P11229)
Sequence (P11229 whole entry): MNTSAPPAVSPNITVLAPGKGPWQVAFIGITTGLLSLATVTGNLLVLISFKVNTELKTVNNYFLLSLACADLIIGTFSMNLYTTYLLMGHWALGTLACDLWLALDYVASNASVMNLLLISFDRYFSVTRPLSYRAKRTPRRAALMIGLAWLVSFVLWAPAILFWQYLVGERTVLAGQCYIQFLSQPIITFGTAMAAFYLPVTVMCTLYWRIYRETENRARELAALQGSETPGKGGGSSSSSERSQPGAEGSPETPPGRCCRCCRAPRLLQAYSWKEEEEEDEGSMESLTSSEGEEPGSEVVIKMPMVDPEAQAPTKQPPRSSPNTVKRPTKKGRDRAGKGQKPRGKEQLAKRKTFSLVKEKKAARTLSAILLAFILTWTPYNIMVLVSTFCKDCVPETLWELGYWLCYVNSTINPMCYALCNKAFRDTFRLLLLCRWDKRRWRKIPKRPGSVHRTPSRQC
method-notes: Agonist activity at human muscarinic M1 acetylcholine receptor expressed in CHO cells assessed as calcium mobilization at 0.3 uM by FLIPR assay
Type: functional, cell-based
# if value of Activity reaches 80%, tag Y; if it stays below, tag N

- structure-smiles: "CCOC(=O)N1CCC(CN2CC(N3Cc4ccccc4NC3=O)C2)CC1"
  class-label: "Y"
- structure-smiles: "CCOC(=O)N1CCC(CN2CC[C@H](N3Cc4ccccc4NC3=O)C2)CC1"
  class-label: "N"
- structure-smiles: "CCOC(=O)N1CCC(N2CCC(N3Cc4ccccc4NC3=O)CC2)CC1"
  class-label: "Y"
- structure-smiles: "CCOC(=O)N1CCC(CN2CC[C@@H](N3Cc4ccccc4NC3=O)C2)CC1"
  class-label: "Y"
- structure-smiles: "CCOC(=O)N1[C@@H]2CC[C@H]1C[C@H](CN1CC(N3Cc4ccccc4NC3=O)C1)C2"
  class-label: "Y"
